- TEST_TARGET: VR1eGFP (Rattus norvegicus)
- Sequence (O35433 whole entry): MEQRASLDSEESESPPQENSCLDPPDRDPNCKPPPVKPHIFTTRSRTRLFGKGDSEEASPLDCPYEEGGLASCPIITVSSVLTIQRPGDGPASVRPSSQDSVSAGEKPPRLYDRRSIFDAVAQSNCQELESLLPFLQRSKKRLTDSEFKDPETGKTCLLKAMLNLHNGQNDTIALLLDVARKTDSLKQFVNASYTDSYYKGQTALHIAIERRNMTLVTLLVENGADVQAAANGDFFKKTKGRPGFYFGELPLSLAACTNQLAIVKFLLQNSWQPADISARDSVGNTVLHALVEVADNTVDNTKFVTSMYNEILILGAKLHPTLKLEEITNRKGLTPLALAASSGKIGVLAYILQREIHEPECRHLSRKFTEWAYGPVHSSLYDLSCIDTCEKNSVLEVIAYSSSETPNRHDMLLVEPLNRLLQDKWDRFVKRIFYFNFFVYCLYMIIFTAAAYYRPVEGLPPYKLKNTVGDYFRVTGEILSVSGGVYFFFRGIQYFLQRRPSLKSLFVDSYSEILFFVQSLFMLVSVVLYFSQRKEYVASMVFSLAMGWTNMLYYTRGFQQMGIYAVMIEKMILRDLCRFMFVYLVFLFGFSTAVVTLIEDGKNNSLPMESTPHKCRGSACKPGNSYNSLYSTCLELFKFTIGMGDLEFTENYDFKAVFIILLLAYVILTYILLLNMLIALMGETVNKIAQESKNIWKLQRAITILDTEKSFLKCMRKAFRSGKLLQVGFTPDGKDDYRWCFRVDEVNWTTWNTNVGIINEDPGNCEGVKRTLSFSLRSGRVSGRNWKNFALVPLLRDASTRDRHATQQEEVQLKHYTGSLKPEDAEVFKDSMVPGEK
- ASSAY_NAME: cell-based
- EXPERIMENTAL_CONDITIONS: N=3; read-out: ED50 of induced Ca2+ uptake
MEASURED_PROPERTY: EC50 (nM)
Your answer is read as nM, so omit the unit and give the number.

Task: Would you mind telling me what EC50 value was observed for C=C(C)[C@]12C[C@@H](C)[C@@]34O[C@](Cc5ccccc5)(O[C@@H]1[C@@H]3C=C(COC(=O)Cc1ccc(O)c(OC)c1)C[C@]1(O)C(=O)C(C)=C[C@@H]41)O2 ?
Output: 0.1
